# Assay procedure: Tolerability in CD1 mice: organ weight (Example 33)
# Assay type: in vivo
# Experimental setup: 50 mg/kg s.c. twice a week, 2 weeks, vs PBS control, normalized to body weight
Overview of recorded Percent change in spleen weight for various substances

>  <Substance>
416838 (antisense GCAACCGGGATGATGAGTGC; 5-10-5 gapmer, further chemistry not given here) [compound 416838]

>  <Percent change in spleen weight>
+21%

$$$$
>  <Substance>
416825 (antisense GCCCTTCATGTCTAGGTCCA; 5-10-5 gapmer, further chemistry not given here) [compound 416825]

>  <Percent change in spleen weight>
−12%

$$$$
>  <Substance>
417003 (antisense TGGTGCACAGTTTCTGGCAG; 2-13-5 gapmer chemistry, further chemistry not given here) [compound 417003]

>  <Percent change in spleen weight>
+12%

$$$$
>  <Substance>
416999 (antisense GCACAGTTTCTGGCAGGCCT; 2-13-5 gapmer chemistry, further chemistry not given here) [compound 416999]

>  <Percent change in spleen weight>
+7%

$$$$
>  <Substance>
416858 (antisense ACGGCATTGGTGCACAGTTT; 5-10-5 gapmer, further chemistry not given here) [compound 416858]

>  <Percent change in spleen weight>
−2%

$$$$
>  <Substance>
416864 (antisense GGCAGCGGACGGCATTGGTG; 5-10-5 gapmer, further chemistry not given here) [compound 416864]

>  <Percent change in spleen weight>
−10%

$$$$
>  <Substance>
416850 (antisense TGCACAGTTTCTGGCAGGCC; 5-10-5 gapmer, further chemistry not given here) [compound 416850]

>  <Percent change in spleen weight>
−4%

$$$$
>  <Substance>
416925 (antisense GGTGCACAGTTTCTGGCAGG; 3-14-3 gapmer chemistry, further chemistry not given here) [compound 416925]

>  <Percent change in spleen weight>
−7%

$$$$
